molecular target: TJP1_3, Q07157; experiment: holdup assay; parameters: key: below the threshold = too weak to quantify, mostly under pKd 3.1 to 4; conditions: plain residues with an end cap or a label only (N-terminal biotin on a linker: ado-ado)
Sequence (Q07157 416-512): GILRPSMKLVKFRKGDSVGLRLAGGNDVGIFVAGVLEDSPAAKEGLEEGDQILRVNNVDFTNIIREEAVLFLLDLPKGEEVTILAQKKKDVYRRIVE
measurement-name: pKd

In the examples that follow, each entry is paired with its recorded pKd.
NSTHNLKDYV [CLDN20, P56880]	below the threshold
FVFESRKEIL [TBPL1, P62380]	below the threshold
PALKNGQYWV [CSPG4, Q6UVK1]	3.95
GDSSRKEYFI [GYPC, P04921]	below the threshold
PSVYSRSQYV [CLDN8, P56748]	below the threshold
HYPASPDSWV [CTNND2, Q9UQB3]	3.81

Each binder below has a reported value. Please supply its pKd.
1. EAVTVESTSL [SLC22A11, Q9NSA0]
2. NTALVESEDL [PALLS, Q8WX93;Q8WX93-1]
3. KAEEKPPSKV [SCN4B, Q8IWT1]
4. GQNMTVSVVI [PRLHR, P49683]
5. VISSDDLTEL [CAPN6, Q9Y6Q1]

Result:
1. below the threshold
2. below the threshold
3. below the threshold
4. below the threshold
5. below the threshold
